Experiment: PrestoBlue viability assay
Assay type: cell-based, Human
Conditions: human, MCF7 breast cancer cells; 100 μM, 48 hours; read-out: reduction of MCF7 cell viability
attribute measured: cytotoxicity at 48 h, 100 μM (%)
Answers are plain numbers, in %.

// COc1cc(-n2c(S)nc3ccccc3c2=O)c(Cl)cc1Cl : cytotoxicity at 48 h, 100 μM value = 20

----------
Assay: PrestoBlue viability assay
Type: cell-based, Human
Conditions: human, MCF7 breast cancer cells; 50 μM, five days; read-out: reduction of MCF7 cell viability
attribute measured: cytotoxicity at 5 days, 50 μM

// COc1cc(-n2c(S)nc3ccccc3c2=O)c(Cl)cc1Cl : cytotoxicity at 5 days, 50 μM value = > 65%

----------
Experiment: PrestoBlue viability assay
Format: cell-based, Human
Conditions: human, MCF7 breast cancer cells; 100 μM, five days; read-out: reduction of MCF7 cell viability
Procedure: The inventors sought to evaluate whether mDIVI-1-induced inhibition of DRP1 has repercussion on the viability of MCF7 cells. […] Similar results were obtained using the Bradford assay, which measures protein content, as an indicator of cell viability. […] PRESTOBLUE VIABILITY ASSAY: Cell viability was measured using the resazurin-based PrestoBlue reagent (A-13261, ThermoFisher Scientific). […]
attribute measured: cytotoxicity at 5 days, 100 μM (%)
Answers are plain numbers, in %.

// COc1cc(-n2c(S)nc3ccccc3c2=O)c(Cl)cc1Cl [mDIVI-1] : cytotoxicity at 5 days, 100 μM value = 85
